Target: human Adenosine A1 receptor (Homo sapiens, UniProt P30542)
Sequence (P30542 1-326): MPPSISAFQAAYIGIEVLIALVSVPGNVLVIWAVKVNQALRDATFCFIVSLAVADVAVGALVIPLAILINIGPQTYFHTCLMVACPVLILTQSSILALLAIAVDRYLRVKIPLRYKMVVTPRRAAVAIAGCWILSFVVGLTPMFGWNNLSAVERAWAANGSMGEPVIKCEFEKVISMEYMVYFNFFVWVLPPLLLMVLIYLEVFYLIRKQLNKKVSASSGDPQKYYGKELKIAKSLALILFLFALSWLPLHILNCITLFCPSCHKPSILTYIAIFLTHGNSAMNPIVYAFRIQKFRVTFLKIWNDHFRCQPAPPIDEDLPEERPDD
pKi: −log10 of the molar value.
measurementType: pKi

| compound | measurementType | val |
| --- | --- | --- |
| Cc1cc(-c2c(-c3cccc(C#N)c3)nn3ccc(N4CCS(=N)(=O)CC4)nc23)cc(Cl)n1 [Example 2.26] | pKi | 6.44 |

I = N#Cc1c(-c2ccco2)nn2ccc(N3CCN(Cc4ccccn4)CC3)nc12 [Example 37.7]
II = Cc1cc(-c2c(-c3cccc(C#N)c3)nn3ccc(C(=O)N[C@H]4C[C@H](O)C4)nc23)cc(Cl)n1 [Example 6.19]
III = N#Cc1c(-c2ccco2)nn2ccc(NCc3ccccc3)nc12 [Example 45]
-- ask // sort entries: pKi, high to low # list labels per requested ordering
-- reply III, I, II

1 = Cc1cc(-c2c(-c3cccc(C#N)c3)nn3ccc(C(=O)NC(C)(C)C)nc23)cc(N)n1 [Example 91]
2 = N#Cc1cccc(-c2nn3ccc(NCCN4CCN(c5ccccc5)CC4)nc3c2C#N)c1 [Example 87.1]
-- ask I would appreciate it if you could say which entry, 1 or 2 , has the lower pKi value. State your choice using its label.
-- reply 2
(2: 6.67, 1: 6.99)
